System: Rhizoctonia solani
Experiment: Test B: turf brown patch on bentgrass seedlings, sprayed the day before inoculation, visual disease rating
Assay type: in vivo
Conditions: 200 ppm; 100 = 100% disease control, 0 = no control relative to controls
Source text: General protocol for preparing test suspensions for Tests A-J: The test compounds were first dissolved in acetone in an amount equal to 3% of the final volume and then suspended at the desired concentration (in ppm) in acetone and purified water (50/50 mix) containing 250 ppm of the surfactant Trem® 014 (polyhydric alcohol esters). […]
valueKind: Test B disease control rating (%)

> print(dat)
                                smilesinput  unitofmeasure  measured
1  Cc1nn(C)c(-c2ccc(Cl)c(F)c2)c1-c1c(F)cccc1F              %        98
2   Cc1nc(Cl)c(-c2ccc(F)cc2)n1-c1ccc(Cl)cc1              %        38
3  Cc1nc(Cl)c(-c2c(F)cccc2F)n1-c1ccc(Cl)cc1              %        65

###

Tested on: Puccinia recondita f. sp. tritici
Assay: Test H: wheat leaf rust, test suspension sprayed after inoculation of wheat seedlings, visual disease rating
Format: in vivo
Settings: 200 ppm; 100 = 100% disease control, 0 = no control relative to controls
valueKind: Test H disease control rating (%)

> print(dat)
                                   molecule  measured
1  Cc1nn(C)c(Cc2ccc(F)cc2)c1-c1ccc(F)cc1Cl [compound 312]         9
2  COc1cc(F)c(-c2c(-c3ccc(I)cc3)c(OC)nn2C)c(F)c1 [compound 431]         9
3  COc1ccc(F)c(-c2c(Cl)nc(Cl)n2-c2ccc(C)c(F)c2)c1F [compound 561]         9

###

Tested on: Septoria tritici
Test: Test G: wheat leaf blotch on wheat seedlings, sprayed the day before inoculation, visual disease rating
Format: in vivo
Settings: 200 ppm; 100 = 100% disease control, 0 = no control relative to controls
Test G disease control rating values for the compounds below.
valueKind: Test G disease control rating (%)

> print(dat)
                                    compound  measured
 1  Cc1ccc(F)c(-c2c(Cl)nc(C)n2-c2ccc(Cl)cc2)c1F [compound 107]        96
 2  COc1cc(F)c(-c2c(Br)nc(Cl)n2-c2ccc(C(F)(F)F)nc2)c(F)c1 [compound 706]        99
 3  Cc1nc(Cl)c(-c2c(F)ccc(F)c2Cl)n1-c1ccc(Cl)cc1 [compound 80]        98
 4  Fc1cccc(Cl)c1-c1c(Cl)nc(Br)n1-c1ccc(Cl)cc1 [compound 52]        97
 5  COc1ccc(F)c(-c2c(Cl)nc(Cl)n2-c2ccc(Cl)nc2)c1F [compound 709]        99
 6  Cc1nc(C)n(-c2ccc(Cl)cc2)c1-c1c(F)ccc(F)c1Cl [compound 388]        99
 7  COc1ccc(F)c(-c2c(Cl)nc(Cl)n2-c2ccc(Br)cc2)c1F [compound 562]       100
 8  N#Cc1ccc(F)c(-c2c(Cl)nc(Br)n2-c2ccc(Cl)nc2)c1F [compound 701]        99
 9  Fc1cccc(F)c1-c1c(Cl)nc(Br)n1Cc1cccc(Cl)c1 [compound 101]        97
10  Cc1nc(Cl)c(-c2c(F)cccc2F)n1Cc1ccc(Cl)c(F)c1 [compound 120]        96
